Biological target: UniProtKB Q969F8
Sequence (Q969F8 whole entry): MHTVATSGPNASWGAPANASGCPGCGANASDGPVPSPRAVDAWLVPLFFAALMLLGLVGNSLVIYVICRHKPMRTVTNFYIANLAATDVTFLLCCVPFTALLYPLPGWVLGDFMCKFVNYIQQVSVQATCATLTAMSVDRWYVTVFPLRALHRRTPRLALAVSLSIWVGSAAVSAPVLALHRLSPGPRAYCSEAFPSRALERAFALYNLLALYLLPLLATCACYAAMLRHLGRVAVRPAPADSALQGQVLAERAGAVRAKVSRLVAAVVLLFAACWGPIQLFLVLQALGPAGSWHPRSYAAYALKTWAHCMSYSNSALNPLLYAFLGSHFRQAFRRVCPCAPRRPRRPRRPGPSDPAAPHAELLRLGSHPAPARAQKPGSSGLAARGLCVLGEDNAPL
Test: Human KISS1R binding assay (membrane competition binding)
Settings: 90 min at room temperature; competition with 0.2 nM [125I]-metastin (45-54); Flp-In T-Rex 293 kisspeptin membranes; metal complexes nonradioactive Ga, In, Lu; read-out: hKiSSR Binding Ki (90 min)
pKi: −log10 of the molar value. Square brackets hold non-standard residues; d marks the D form. Peptide text beside a SMILES is read from it. * marks the point of attachment. DOTA = O=C(O)CN1CCN(CC(=O)O)CCN(CC(=O)*)CCN(CC(=O)O)CC1; Gly(N-(3-F-4-Me-benzyl)) = Cc1ccc(CNCC(=O)*)cc1F; Api(1-amidino) = N=C(N)N1CCC(N)(C(=O)O)CC1; Hydrocinnamoyl(4-I) = O=C(CCc1ccc(I)cc1)*; 2Nal = N[C@@H](Cc1ccc2ccccc2c1)C(=O)O; Api = NC1(C(=O)O)CCNCC1; Ahx = NCCCCCC(=O)O; azaGly = NNC(=O)O
measured metric: pKi

compound: CC(C)C[C@H](NC(=O)NNC(=O)[C@H](Cc1ccccc1)NC(=O)[C@@H](NC(=O)[C@H](CC(N)=O)NC(=O)[C@H](CCCCNC(=O)CN1CCN(CC(=O)O)CCN(CC(=O)O)CCN(CC(=O)O)CC1)NC(=O)[C@@H](Cc1ccc(O)cc1)NC(=O)CCc1ccc(I)cc1)[C@@H](C)O)C(=O)NC1(C(=O)N[C@@H](Cc2c[nH]c3ccccc23)C(N)=O)CCN(C(=N)N)CC1 [Compound 321] ({Hydrocinnamoyl(4-I)}-[dY]K(DOTA)NTF[azaGly]L[Api(1-amidino)]W-NH2)
result: > 8.00

Below: the item to evaluate.
Return reported pKi; argument: Cc1ccc(CNCC(=O)N2CCC(NC(=O)[C@H](CC(C)C)NC(=O)NNC(=O)[C@H](Cc3ccccc3)NC(=O)CCCCCNC(=O)[C@H](Cc3ccc4ccccc4c3)NC(=O)[C@@H](Cc3ccc(O)cc3)NC(=O)CN3CCN(CC(=O)O)CCN(CC(=O)O)CCN(CC(=O)O)CC3)(C(=O)N[C@@H](Cc3c[nH]c4ccccc34)C(N)=O)CC2)cc1F [Compound 285] ({DOTA}-[dY][2Nal][Ahx]F[azaGly]L[Api](Gly(N-(3-F-4-Me-benzyl)))W-NH2)
> 8.00
